Here, each record is paired with measured GI50 data.
System: KM-20L2
Test: NCI tumour cell line growth inhibition, 48 h
The source made the active and inactive calls. No stated cut-off is given here; in the data, active = GI50 up to about 1.1 µM and inactive = higher.

COMPOUND	ASSAYED_TARGET	MEASUREMENT_NAME	RESULT
COc1cc2c(cc1OC)/C(=C\c1ccccc1N)C(=O)OC2	KM-20L2	GI50	19.1 µM (inactive)
COc1ccc(/C(=N/NC(N)=O)C2(O)C(=O)Nc3ccc([N+](=O)[O-])cc32)cc1 (stereo not given)	KM-20L2	GI50	22.3 µM (inactive)
COc1cc2c(cc1O)[C@H](C)C(c1ccc(Cl)cc1)O2 (stereo not given in full)	KM-20L2	GI50	23.1 µM (inactive)
COc1cccc(Cc2c3cc(OC)ccc3cc[n+]2C)c1	KM-20L2	GI50	65.5 µM (inactive)
Cc1c(C(=O)CC(=O)C(=O)Nc2ccccc2C(F)(F)F)[n+]([O-])c2ccccc2[n+]1[O-]	KM-20L2	GI50	33.7 µM (inactive)
Cc1ccc(NC(=O)CC2SC(Nc3ccc(Cl)cc3)=NC2=O)cc1C (stereo not given)	KM-20L2	GI50	19.1 µM (inactive)

Prompt line: Which GI50 is reported with KM-20L2 for this entry: Brc1ccc(C[N+]23CN4CN(CN(C4)C2)C3)cc1 ?
Response line: 31.1 µM (inactive)

Prompt line: Which GI50 is reported with KM-20L2 for this entry: COC1C(O)=C2C(=O)O/C(C)=C/C=C/C=C/C=C\CC(c3ccccc3)NC(=O)\C=C/C=C\C=C\C=C\[C@@]2(C)[C@@H]1O (stereo not given in full) ?
Response line: < 0.01 µM (active)

Prompt line: Which GI50 is reported with KM-20L2 for this entry: C[Si](C)(C)CN1C(=O)c2ccccc2C1(O)c1ccccc1 (stereo not given) ?
Response line: > 100 µM (inactive)

Prompt line: Which GI50 is reported with KM-20L2 for this entry: CC(=O)c1c(O)ccc2c1CC(CC=O)O2 (stereo not given) ?
Response line: > 100 µM (inactive)
